# Test system: breast cancer cells MCF-7
# assay explanation: MTT antiproliferative assay, MCF-7 under normoxia and hypoxia
# Format: cell-based, human
# settings: Homo sapiens, MCF7, read-out: IC50 N
endpoint label: pIC50
Hey, just a heads up that pIC50 is the negative log base 10 of the concentration in molar.

Task: Read off the recorded pIC50 for CCOC(=O)c1c(C)[n+]([O-])c2cc(S(N)(=O)=O)ccc2[n+]1[O-] [Compound 7f]
Output: 4.98

Task: Read off the recorded pIC50 for N#Cc1c(-c2ccc(Cl)cc2)[n+]([O-])c2cc(S(N)(=O)=O)ccc2[n+]1[O-] [Compound 7b]
Output: 5.74

Task: Read off the recorded pIC50 for COc1cccc2c1C(=O)c1c(O)c3c(c(O)c1C2=O)C[C@@](O)(C(=O)CO)C[C@@H]3O[C@H]1C[C@H](N)[C@H](O)[C@H](C)O1 [DOXO, doxorubicin, reference compound]
Output: 6.52

Task: Read off the recorded pIC50 for N#Cc1c(-c2ccccc2)[n+]([O-])c2cc(S(N)(=O)=O)ccc2[n+]1[O-] [Compound 7a]
Output: 5.46

Task: Read off the recorded pIC50 for Nc1n[n+]([O-])c2ccccc2[n+]1[O-] [TPZ, Tirapazamine, reference compound]
Output: 4.62

Task: Read off the recorded pIC50 for NS(=O)(=O)c1ccc2c(c1)[n+]([O-])c(C(F)(F)F)c(C(=O)c1ccccc1)[n+]2[O-] [Compound 7h]
Output: 5.96

Task: Read off the recorded pIC50 for CC(=O)c1c(C)[n+]([O-])c2ccc(S(N)(=O)=O)cc2[n+]1[O-] [Compound 8g]
Output: 4.93

Task: Read off the recorded pIC50 for CC(=O)c1c(C)[n+]([O-])c2cc(S(N)(=O)=O)ccc2[n+]1[O-] [Compound 7g]
Output: 5.15

Task: Read off the recorded pIC50 for N#Cc1c(-c2ccccc2)[n+]([O-])c2ccc(S(N)(=O)=O)cc2[n+]1[O-] [Compound 8a]
Output: 5.32

Task: Read off the recorded pIC50 for CCOC(=O)c1c(-c2ccccc2)[n+]([O-])c2cc(S(N)(=O)=O)ccc2[n+]1[O-] [Compound 7e]
Output: 5.40

###

I'd appreciate it if you could supply HCR, hypoxic cytotoxicity ratio: IC50(N)/IC50(H) values for the items below.
# Tested on: breast cancer cells MCF-7
# assay explanation: MTT antiproliferative assay, MCF-7 under normoxia and hypoxia
# Format: cell-based, human
# settings: MCF-7
The answer should be a number; do not append a unit.

Task: Read off the recorded HCR, hypoxic cytotoxicity ratio: IC50(N)/IC50(H) for N#Cc1c(-c2ccccc2)[n+]([O-])c2ccc(S(N)(=O)=O)cc2[n+]1[O-] [Compound 8a]
Output: 3.7

Task: Read off the recorded HCR, hypoxic cytotoxicity ratio: IC50(N)/IC50(H) for COc1cccc2c1C(=O)c1c(O)c3c(c(O)c1C2=O)C[C@@](O)(C(=O)CO)C[C@@H]3O[C@H]1C[C@H](N)[C@H](O)[C@H](C)O1 [DOXO, doxorubicin, reference compound]
Output: 0.7

Task: Read off the recorded HCR, hypoxic cytotoxicity ratio: IC50(N)/IC50(H) for CC(=O)c1c(C)[n+]([O-])c2cc(S(N)(=O)=O)ccc2[n+]1[O-] [Compound 7g]
Output: 1.1

Task: Read off the recorded HCR, hypoxic cytotoxicity ratio: IC50(N)/IC50(H) for N#Cc1c(-c2ccccc2)[n+]([O-])c2cc(S(N)(=O)=O)ccc2[n+]1[O-] [Compound 7a]
Output: 3.9

Task: Read off the recorded HCR, hypoxic cytotoxicity ratio: IC50(N)/IC50(H) for CCOC(=O)c1c(-c2ccccc2)[n+]([O-])c2cc(S(N)(=O)=O)ccc2[n+]1[O-] [Compound 7e]
Output: 4.7

Task: Read off the recorded HCR, hypoxic cytotoxicity ratio: IC50(N)/IC50(H) for CCOC(=O)c1c(C)[n+]([O-])c2cc(S(N)(=O)=O)ccc2[n+]1[O-] [Compound 7f]
Output: 2.4

Task: Read off the recorded HCR, hypoxic cytotoxicity ratio: IC50(N)/IC50(H) for CC(=O)c1c(C)[n+]([O-])c2ccc(S(N)(=O)=O)cc2[n+]1[O-] [Compound 8g]
Output: 4.2

Task: Read off the recorded HCR, hypoxic cytotoxicity ratio: IC50(N)/IC50(H) for Nc1n[n+]([O-])c2ccccc2[n+]1[O-] [TPZ, Tirapazamine, reference compound]
Output: 5.4

Task: Read off the recorded HCR, hypoxic cytotoxicity ratio: IC50(N)/IC50(H) for NS(=O)(=O)c1ccc2c(c1)[n+]([O-])c(C(F)(F)F)c(C(=O)c1ccccc1)[n+]2[O-] [Compound 7h]
Output: 1.4

Task: Read off the recorded HCR, hypoxic cytotoxicity ratio: IC50(N)/IC50(H) for N#Cc1c(-c2ccc(Cl)cc2)[n+]([O-])c2cc(S(N)(=O)=O)ccc2[n+]1[O-] [Compound 7b]
Output: 2.2

###

# collection of pKi values tested on hCA XII (Homo sapiens, UniProt O43570)
# Sequence (O43570 25-354): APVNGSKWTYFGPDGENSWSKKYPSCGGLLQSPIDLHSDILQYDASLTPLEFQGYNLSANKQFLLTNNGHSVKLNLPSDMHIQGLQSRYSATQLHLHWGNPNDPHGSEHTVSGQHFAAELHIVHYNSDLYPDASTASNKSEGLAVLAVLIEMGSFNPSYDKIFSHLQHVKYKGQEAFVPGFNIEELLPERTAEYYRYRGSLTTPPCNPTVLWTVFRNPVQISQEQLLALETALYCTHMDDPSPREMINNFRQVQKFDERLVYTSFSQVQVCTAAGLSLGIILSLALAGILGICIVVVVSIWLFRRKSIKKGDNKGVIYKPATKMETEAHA
Hey, just a heads up that pKi is the negative log base 10 of the concentration in molar.

Task: Read off the recorded pKi for CCOC(=O)c1c(C)[n+]([O-])c2cc(S(N)(=O)=O)ccc2[n+]1[O-]
Output: 7.25

Task: Read off the recorded pKi for N#Cc1c(-c2ccccc2)[n+]([O-])c2ccc(S(N)(=O)=O)cc2[n+]1[O-]
Output: 6.95

Task: Read off the recorded pKi for CC(=O)c1c(C)[n+]([O-])c2cc(S(N)(=O)=O)ccc2[n+]1[O-]
Output: 6.62

Task: Read off the recorded pKi for CCOC(=O)c1c(-c2ccccc2)[n+]([O-])c2cc(S(N)(=O)=O)ccc2[n+]1[O-]
Output: 6.60

Task: Read off the recorded pKi for NS(=O)(=O)c1ccc2c(c1)[n+]([O-])c(C(F)(F)F)c(C(=O)c1ccccc1)[n+]2[O-]
Output: 6.84

Task: Read off the recorded pKi for N#Cc1c(-c2ccccc2)[n+]([O-])c2cc(S(N)(=O)=O)ccc2[n+]1[O-]
Output: 7.05

Task: Read off the recorded pKi for N#Cc1c(-c2ccc(Cl)cc2)[n+]([O-])c2cc(S(N)(=O)=O)ccc2[n+]1[O-]
Output: 6.75

Task: Read off the recorded pKi for N#Cc1c(-c2ccc(Cl)cc2)[n+]([O-])c2ccc(S(N)(=O)=O)cc2[n+]1[O-]
Output: 6.88

###

# Test system: A431 skin cancer cells
# assay explanation: MTT assay, A431 cells in normoxia and hypoxia
# Type: cell-based
# settings: Homo sapiens, A-431, 72 h, read-out: IC50 A431, hypoxia
endpoint label: IC50

Task: Read off the recorded IC50 for CC(=O)c1c(C)[n+]([O-])c2cc(S(N)(=O)=O)ccc2[n+]1[O-] [Compound 7g]
Output: ~11 µM

###

# System: DND-41
# assay explanation: Antiproliferative assay, DND-41
# Type: cell-based
# settings: Homo sapiens, DND41, read-out: IC50 DND-41
endpoint label: IC50 (µM)
Give your result in µM as a bare value.

Task: Read off the recorded IC50 for COc1cc([C@@H]2c3cc4c(cc3[C@@H](O[C@@H]3O[C@@H]5CO[C@@H](C)O[C@H]5[C@H](O)[C@H]3O)[C@H]3COC(=O)[C@H]23)OCO4)cc(OC)c1O [Etoposide, etoposide, reference compound]
Output: 0.29

Task: Read off the recorded IC50 for CCOC(=O)c1c(C)[n+]([O-])c2cc(S(N)(=O)=O)ccc2[n+]1[O-]
Output: 10.3

Task: Read off the recorded IC50 for N#Cc1c(-c2ccc(Cl)cc2)[n+]([O-])c2cc(S(N)(=O)=O)ccc2[n+]1[O-]
Output: 5.4

Task: Read off the recorded IC50 for CC(=O)c1c(C)[n+]([O-])c2cc(S(N)(=O)=O)ccc2[n+]1[O-]
Output: 66.9

Task: Read off the recorded IC50 for N#Cc1c(-c2cccs2)[n+]([O-])c2cc(S(N)(=O)=O)ccc2[n+]1[O-]
Output: 44.8

Task: Read off the recorded IC50 for NS(=O)(=O)c1ccc2c(c1)[n+]([O-])c(C(F)(F)F)c(C(=O)c1ccccc1)[n+]2[O-]
Output: 2.1

Task: Read off the recorded IC50 for CCOC(=O)c1c(-c2ccccc2)[n+]([O-])c2cc(S(N)(=O)=O)ccc2[n+]1[O-]
Output: 28.2

Task: Read off the recorded IC50 for N#Cc1c(-c2ccccc2)[n+]([O-])c2cc(S(N)(=O)=O)ccc2[n+]1[O-]
Output: 0.8

###

# tested on: hCA II (Homo sapiens)
# assay explanation: Stopped flow CO2 hydrase assay, hCA II
# Type: biochemical
endpoint label: Ki (nM)
Give your result in nM as a bare value.

Task: Read off the recorded Ki for CC(=O)c1c(C)[n+]([O-])c2cc(S(N)(=O)=O)ccc2[n+]1[O-] [Compound 7g]
Output: 7.4

Task: Read off the recorded Ki for CCOC(=O)c1c(C)[n+]([O-])c2cc(S(N)(=O)=O)ccc2[n+]1[O-] [Compound 7f]
Output: 8

Task: Read off the recorded Ki for N#Cc1c(-c2ccccc2)[n+]([O-])c2ccc(S(N)(=O)=O)cc2[n+]1[O-] [Compound 8a]
Output: 4.4

Task: Read off the recorded Ki for N#Cc1c(-c2ccccc2)[n+]([O-])c2cc(S(N)(=O)=O)ccc2[n+]1[O-] [Compound 7a]
Output: 2.7
